- Test system: NCI-H23 lung
- Test summary: NCI-60 one-dose screen, 48 h
- Experimental setup: 10 µM unless noted
This is part of a sample that, as a whole, favours compounds with a hit. Of some 83,000 tested, about 20% had one in any assay. Activity calls are given as the source filed them. The calls were made as follows: active = growth percent below 10; inactive = the rest.
Outcome codes: active, inactive

INSERT INTO results (molecule, label_class) VALUES
  ('Cn1cc(-c2nc(-c3cn(C)c4ncccc34)cs2)c2ccccc21', 'inactive'),
  ('CCC1C(=O)COC1=O (centres undefined)', 'inactive'),
  ('CCCCC[C@H]1CC=C2C(=O)C(Cl)=C[C@@H]2CC=CCCCC(=O)O[C@@H](CCCCC)CC=C2C(=O)C(Cl)=C[C@@H]2CC=CCCCC(=O)O[C@@H](CCCCC)CC=C2C(=O)C(Cl)=C[C@@H]2CC=CCCCC(=O)O1', 'inactive'),
  ('Fc1ccc(Nc2nnc(-c3ccc(Cl)cc3)o2)cc1', 'inactive'),
  ('COC(=O)[C@]12CC[C@@H](C)[C@H](C)[C@@H]1C1=CC[C@@H]3[C@@]4(C)C[C@@H](O)OC[C@](C)(C=O)C4C(=O)C[C@@]3(C)[C@]1(C)CC2 (some centres undefined)', 'active'),
  ('CN(C)CCCCC(C(=O)CBr)(c1ccccc1)c1ccccc1', 'inactive'),
  ('COc1cc2ncnc(Nc3ccc(Oc4ccnc(C)c4)c(C)c3)c2cc1NC(=O)CC1CCSS1 (centres undefined)', 'active'),
  ('Cc1cccc(C)c1NC(=O)CSC(=S)N1CCN(CCOCCO)CC1', 'inactive'),
  ('COc1ccc(/C=C/C(=O)NCCO)cc1', 'inactive');
